Tested on: HT-29
Assay: NCI tumour cell line growth inhibition, 48 h
Active and inactive are the calls of the source. No stated cut-off is given here; in the data, active = GI50 up to about 1.1 µM and inactive = higher. Peptide text beside a SMILES is read from it. * marks the point of attachment. Boc = CC(C)(C)OC(=O)*

{"compound": "C[C@@H]1O[C@@H]2OCC[C@@H]2C2=C1C(=O)c1ccccc1C2=O", "target-entity": "HT-29", "GI50": "40 µM (inactive)"}
{"compound": "O=c1c2ccccc2[nH]c2cc(O)cc(O)c12", "target-entity": "HT-29", "GI50": "40.2 µM (inactive)"}
{"compound": "O=C(Nc1ccccc1)Oc1ccc(C(=S)Nc2ccc(Br)cc2)cc1", "target-entity": "HT-29", "GI50": "16.8 µM (inactive)"}
{"compound": "CC1OC(n2ccc3ccc([N+](=O)[O-])cc32)C(O)C(O)C1O (stereo not given)", "target-entity": "HT-29", "GI50": "> 100 µM (inactive)"}
{"compound": "[O-][S+](Nc1ccccc1)c1ccc(-c2ccccc2)cc1 (stereo not given)", "target-entity": "HT-29", "GI50": "> 100 µM (inactive)"}
{"compound": "O=[N+]([O-])c1nccn1CC(O)c1ccccc1 (stereo not given)", "target-entity": "HT-29", "GI50": "> 100 µM (inactive)"}
{"compound": "Cc1c(/N=N/c2ccc(Cl)cc2)c(-c2ccccc2)n(C2OC(CO)C(O)C(O)C2O)c(=S)c1C#N (stereo not given)", "target-entity": "HT-29", "GI50": "16.6 µM (inactive)"}
{"compound": "COC(=O)c1c(C)[n+]([O-])c2cc(Cl)c(Cl)cc2[n+]1[O-]", "target-entity": "HT-29", "GI50": "18.7 µM (inactive)"}
{"compound": "O=C(CC(=O)c1cccc2ccccc12)C(=O)Nc1nccs1", "target-entity": "HT-29", "GI50": "> 100 µM (inactive)"}
{"compound": "CNC(C)(C)Cc1ccc(Cl)cc1", "target-entity": "HT-29", "GI50": "> 100 µM (inactive)"}
{"compound": "CCN(CC)/C(Cl)=C(Cl)\\C(=C1\\Nc2ccc(OC)cc21)[N+](=O)[O-]", "target-entity": "HT-29", "GI50": "56.2 µM (inactive)"}
{"compound": "COC(=O)CC1C(C)(C)C(=O)C2CC3=C4CC(=O)OC(c5ccoc5)C4(C)CCC3C1(C)C2=O (stereo not given)", "target-entity": "HT-29", "GI50": "> 100 µM (inactive)"}
{"compound": "COC(=O)C(Cc1c[nH]c2ccccc12)NC(=O)C(Cc1c[nH]c2ccccc12)NC(=O)C(Cc1c[nH]c2ccccc12)NC(=O)C(Cc1c[nH]c2ccccc12)NC(=O)C(Cc1c[nH]c2ccccc12)NC(=O)OC(C)(C)C (stereo not given) (Boc-WWWWW-OMe; configuration not given here)", "target-entity": "HT-29", "GI50": "> 100 µM (inactive)"}
{"compound": "Cc1nc(O)c(Cc2ccccc2O)c(-c2ccccc2)n1", "target-entity": "HT-29", "GI50": "87.5 µM (inactive)"}
{"compound": "CCCCCCCCCCCCCCCCCCNc1ccn(C2OC(CO)C(O)C2O)c(=O)n1 (stereo not given)", "target-entity": "HT-29", "GI50": "> 95.5 µM (inactive)"}
{"compound": "CCCCOc1ccc(/C=C/C2=[N+](CCO)CCO2)cc1", "target-entity": "HT-29", "GI50": "17.6 µM (inactive)"}
{"compound": "O=c1nc2sc3ccc4ccccc4c3n2nc1-c1ccccc1", "target-entity": "HT-29", "GI50": "94.8 µM (inactive)"}
{"compound": "CC1(C)CCc2cc3c(-c4ccccc4)cc(=O)oc3cc2O1", "target-entity": "HT-29", "GI50": "> 100 µM (inactive)"}
{"compound": "COC(=O)CCC(=O)c1ccc2c(c1)CC1(C2)Cc2ccc3c(c2C1)CCCC3=O (stereo not given)", "target-entity": "HT-29", "GI50": "11.2 µM (inactive)"}
{"compound": "O=C(O)c1nc(-c2ccccc2)ncc1-c1nnnn1-c1ccccc1", "target-entity": "HT-29", "GI50": "> 100 µM (inactive)"}
